System: SK-MEL-2
PROCEDURE_DETAILS: Tumor cell growth inhibition panel
Format: cell-based
CONDITIONS_USED: Homo sapiens, Melanoma
MEASURED_PARAMETER: pIC50
Keep in mind that pIC50 stands for -log10 of concentration in molar terms.

For CC(C)(C)C1=NN(c2ccc(C(=O)O)cc2)C(c2ccc(Cl)cc2Cl)C1 (stereo not shown) on SK-MEL-2, measured pIC50 was 4.35

====

SYSTEM: PDE11 (Homo sapiens (Human))
Sequence (Q9HCR9 whole entry): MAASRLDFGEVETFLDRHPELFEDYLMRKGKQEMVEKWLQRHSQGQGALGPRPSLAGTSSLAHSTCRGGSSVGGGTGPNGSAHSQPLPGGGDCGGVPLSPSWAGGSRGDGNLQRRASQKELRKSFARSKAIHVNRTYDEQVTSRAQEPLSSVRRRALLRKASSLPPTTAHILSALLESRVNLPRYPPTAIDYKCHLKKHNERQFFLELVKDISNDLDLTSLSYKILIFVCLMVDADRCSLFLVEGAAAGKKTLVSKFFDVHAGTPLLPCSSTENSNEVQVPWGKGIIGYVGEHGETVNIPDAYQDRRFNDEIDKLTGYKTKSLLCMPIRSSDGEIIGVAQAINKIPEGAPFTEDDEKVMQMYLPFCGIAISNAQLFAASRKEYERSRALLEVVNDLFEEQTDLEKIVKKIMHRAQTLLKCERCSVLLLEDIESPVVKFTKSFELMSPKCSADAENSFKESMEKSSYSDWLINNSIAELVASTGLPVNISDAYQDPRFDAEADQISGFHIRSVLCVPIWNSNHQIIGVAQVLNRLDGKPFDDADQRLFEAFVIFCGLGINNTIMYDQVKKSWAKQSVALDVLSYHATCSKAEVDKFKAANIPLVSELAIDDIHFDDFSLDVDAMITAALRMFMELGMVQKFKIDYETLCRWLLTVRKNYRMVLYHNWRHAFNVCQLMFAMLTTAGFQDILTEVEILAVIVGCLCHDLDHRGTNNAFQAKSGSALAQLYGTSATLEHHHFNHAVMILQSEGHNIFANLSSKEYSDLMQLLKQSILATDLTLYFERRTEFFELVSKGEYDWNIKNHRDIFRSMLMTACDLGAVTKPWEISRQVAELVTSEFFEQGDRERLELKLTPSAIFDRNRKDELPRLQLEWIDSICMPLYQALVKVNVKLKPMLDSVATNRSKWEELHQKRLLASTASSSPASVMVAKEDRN
PROCEDURE_DETAILS: PDE isozyme selectivity, IMAP assay
Assay type: biochemical
CONDITIONS_USED: PDE11, substrate cAMP
MEASURED_PARAMETER: IC50

# compound CC(C)(C)C1=NN(c2ccc(C(=O)O)cc2)C(c2ccc(Cl)cc2Cl)C1 (stereo not shown) ; its IC50 = > 50 µM

Data origin, for the record: patent US9388139B2
